The values you see were collected from patent US20240009190A1.

Entries annotated with measured Tumor weight, Mouse no. 5
Tested on: CT-26 WT cells
Test: CT-26 WT subcutaneous tumor model, CHK inhibitors at lower dose with anti-m-PD-1 antibody (Example 2)
Type: in vivo, BALB/c female mice
Details: Day 23; individual mouse

{"MOLECULE": "NC(=O)c1nnc(N[C@H]2CCCNC2)c2cc(-c3cccc(F)c3)sc12 [Compound 6]", "Tumor weight, Mouse no. 5": "2.97 g"}
{"MOLECULE": "NC(=O)c1nnc(OC2CCCNC2)c2cc(-c3cccc(F)c3)sc12 (stereo not shown) [Compound 6-1]", "Tumor weight, Mouse no. 5": "1.58 g"}
{"MOLECULE": "NC(=O)c1nnc(CC2CCCNC2)c2cc(-c3cc(Cl)cc(Cl)c3)sc12 (stereo not shown) [Compound 6-3]", "Tumor weight, Mouse no. 5": "1.97 g"}
{"MOLECULE": "NC(=O)c1nnc(SC2CCCNC2)c2cc(-c3cccc(F)c3)sc12 (stereo not shown) [Compound 6-2]", "Tumor weight, Mouse no. 5": "1.78 g"}

* * *

Tumor weight, Mouse no. 8 by entry:
System: CT-26 WT cells
Test: CT-26 WT subcutaneous tumor model, CHK inhibitors at lower dose with anti-m-PD-1 antibody (Example 2)
Assay type: in vivo, BALB/c female mice
Details: Day 23; individual mouse
MEASUREMENT LABEL: Tumor weight, Mouse no. 8

{"COMPOUND": "NC(=O)c1nnc(OC2CCCNC2)c2cc(-c3cccc(F)c3)sc12 (stereo not shown) [Compound 6-1]", "ASSAY SYSTEM": "CT-26 WT cells", "MEASUREMENT LABEL": "Tumor weight, Mouse no. 8", "READOUT VALUE": "0.49 g"}
{"COMPOUND": "NC(=O)c1nnc(CC2CCCNC2)c2cc(-c3cc(Cl)cc(Cl)c3)sc12 (stereo not shown) [Compound 6-3]", "ASSAY SYSTEM": "CT-26 WT cells", "MEASUREMENT LABEL": "Tumor weight, Mouse no. 8", "READOUT VALUE": "0.95 g"}
{"COMPOUND": "NC(=O)c1nnc(SC2CCCNC2)c2cc(-c3cccc(F)c3)sc12 (stereo not shown) [Compound 6-2]", "ASSAY SYSTEM": "CT-26 WT cells", "MEASUREMENT LABEL": "Tumor weight, Mouse no. 8", "READOUT VALUE": "2.11 g"}
{"COMPOUND": "NC(=O)c1nnc(N[C@H]2CCCNC2)c2cc(-c3cccc(F)c3)sc12 [Compound 6]", "ASSAY SYSTEM": "CT-26 WT cells", "MEASUREMENT LABEL": "Tumor weight, Mouse no. 8", "READOUT VALUE": "0.57 g"}

* * *

System: CT-26 WT cells
Assay: CT-26 WT subcutaneous tumor model, CHK inhibitors at lower dose with anti-m-PD-1 antibody (Example 2)
Type: in vivo, BALB/c female mice
Conditions: Day 12; compounds 15 mg/kg tail vein once per day; anti-m-PD-1 10 mg/kg IP once every five days
Form field: Average tumor size (one value per entry).

{"COMPOUND": "NC(=O)c1nnc(OC2CCCNC2)c2cc(-c3cccc(F)c3)sc12 (stereo not shown)", "Average tumor size (mm^3)": 367.95}
{"COMPOUND": "NC(=O)c1nnc(SC2CCCNC2)c2cc(-c3cccc(F)c3)sc12 (stereo not shown)", "Average tumor size (mm^3)": 391.83}
{"COMPOUND": "NC(=O)c1nnc(CC2CCCNC2)c2cc(-c3cc(Cl)cc(Cl)c3)sc12 (stereo not shown)", "Average tumor size (mm^3)": 417.93}
{"COMPOUND": "NC(=O)c1nnc(N[C@H]2CCCNC2)c2cc(-c3cccc(F)c3)sc12", "Average tumor size (mm^3)": 367.43}

* * *

Test system: CT-26 WT cells
Assay: CT-26 WT subcutaneous tumor model, CHK inhibitors at lower dose with anti-m-PD-1 antibody (Example 2)
Type: in vivo, BALB/c female mice
Details: Day 23; individual mouse
Documented Tumor weight, Mouse no. 7 across a set of compounds
MEASUREMENT LABEL: Tumor weight, Mouse no. 7 (g)

{"COMPOUND": "NC(=O)c1nnc(SC2CCCNC2)c2cc(-c3cccc(F)c3)sc12 (stereo not shown)", "MEASUREMENT LABEL": "Tumor weight, Mouse no. 7", "UNIT TAG": "g", "READOUT VALUE": 0.89}
{"COMPOUND": "NC(=O)c1nnc(CC2CCCNC2)c2cc(-c3cc(Cl)cc(Cl)c3)sc12 (stereo not shown)", "MEASUREMENT LABEL": "Tumor weight, Mouse no. 7", "UNIT TAG": "g", "READOUT VALUE": 3.12}
{"COMPOUND": "NC(=O)c1nnc(OC2CCCNC2)c2cc(-c3cccc(F)c3)sc12 (stereo not shown)", "MEASUREMENT LABEL": "Tumor weight, Mouse no. 7", "UNIT TAG": "g", "READOUT VALUE": 1.31}
{"COMPOUND": "NC(=O)c1nnc(N[C@H]2CCCNC2)c2cc(-c3cccc(F)c3)sc12", "MEASUREMENT LABEL": "Tumor weight, Mouse no. 7", "UNIT TAG": "g", "READOUT VALUE": 2.04}

* * *

Experiment: Mice body weight in CT-26 WT tumor model (Example 2)
Type: in vivo, BALB/c female mice
Conditions: Day 20; compounds 15 mg/kg tail vein once per day; anti-m-PD-1 10 mg/kg IP once every five days
Each item that follows carries a reported Average body weight.
MEASUREMENT LABEL: Average body weight

{"COMPOUND": "NC(=O)c1nnc(OC2CCCNC2)c2cc(-c3cccc(F)c3)sc12 (stereo not shown)", "READOUT VALUE": "18.32 g"}
{"COMPOUND": "NC(=O)c1nnc(CC2CCCNC2)c2cc(-c3cc(Cl)cc(Cl)c3)sc12 (stereo not shown)", "READOUT VALUE": "18.75 g"}
{"COMPOUND": "NC(=O)c1nnc(SC2CCCNC2)c2cc(-c3cccc(F)c3)sc12 (stereo not shown)", "READOUT VALUE": "18.67 g"}
{"COMPOUND": "NC(=O)c1nnc(N[C@H]2CCCNC2)c2cc(-c3cccc(F)c3)sc12", "READOUT VALUE": "18.25 g"}

* * *

Assay: Mice body weight in CT-26 WT tumor model (Example 2)
Assay type: in vivo, BALB/c female mice
Details: Day 14; compounds 15 mg/kg tail vein once per day; anti-m-PD-1 10 mg/kg IP once every five days
Recorded Average body weight for the following compounds

{"COMPOUND": "NC(=O)c1nnc(SC2CCCNC2)c2cc(-c3cccc(F)c3)sc12 (stereo not shown) [Compound 6-2]", "Average body weight [g]": 17.22}
{"COMPOUND": "NC(=O)c1nnc(OC2CCCNC2)c2cc(-c3cccc(F)c3)sc12 (stereo not shown) [Compound 6-1]", "Average body weight [g]": 17.18}
{"COMPOUND": "NC(=O)c1nnc(N[C@H]2CCCNC2)c2cc(-c3cccc(F)c3)sc12 [Compound 6]", "Average body weight [g]": 17.03}
{"COMPOUND": "NC(=O)c1nnc(CC2CCCNC2)c2cc(-c3cc(Cl)cc(Cl)c3)sc12 (stereo not shown) [Compound 6-3]", "Average body weight [g]": 17.26}

* * *

Experiment: Mice body weight in CT-26 WT tumor model (Example 2)
Type: in vivo, BALB/c female mice
Details: Day 18; compounds 15 mg/kg tail vein once per day; anti-m-PD-1 10 mg/kg IP once every five days
MEASUREMENT LABEL: Average body weight (g)

{"COMPOUND": "NC(=O)c1nnc(SC2CCCNC2)c2cc(-c3cccc(F)c3)sc12 (stereo not shown)", "UNIT TAG": "g", "READOUT VALUE": 18.05}
{"COMPOUND": "NC(=O)c1nnc(N[C@H]2CCCNC2)c2cc(-c3cccc(F)c3)sc12", "UNIT TAG": "g", "READOUT VALUE": 17.89}
{"COMPOUND": "NC(=O)c1nnc(OC2CCCNC2)c2cc(-c3cccc(F)c3)sc12 (stereo not shown)", "UNIT TAG": "g", "READOUT VALUE": 17.99}
{"COMPOUND": "NC(=O)c1nnc(CC2CCCNC2)c2cc(-c3cc(Cl)cc(Cl)c3)sc12 (stereo not shown)", "UNIT TAG": "g", "READOUT VALUE": 18.13}

* * *

Tested on: CT-26 WT cells
Test: CT-26 WT subcutaneous tumor model, CHK inhibitors at lower dose with anti-m-PD-1 antibody (Example 2)
Assay type: in vivo, BALB/c female mice
Settings: Day 23; individual mouse
# reported Tumor weight, Mouse no. 4; entries follow

{"COMPOUND": "NC(=O)c1nnc(OC2CCCNC2)c2cc(-c3cccc(F)c3)sc12 (stereo not shown)", "ASSAY SYSTEM": "CT-26 WT cells", "Tumor weight, Mouse no. 4 / g": 2.87}
{"COMPOUND": "NC(=O)c1nnc(SC2CCCNC2)c2cc(-c3cccc(F)c3)sc12 (stereo not shown)", "ASSAY SYSTEM": "CT-26 WT cells", "Tumor weight, Mouse no. 4 / g": 2.56}
{"COMPOUND": "NC(=O)c1nnc(N[C@H]2CCCNC2)c2cc(-c3cccc(F)c3)sc12", "ASSAY SYSTEM": "CT-26 WT cells", "Tumor weight, Mouse no. 4 / g": 2.43}
{"COMPOUND": "NC(=O)c1nnc(CC2CCCNC2)c2cc(-c3cc(Cl)cc(Cl)c3)sc12 (stereo not shown)", "ASSAY SYSTEM": "CT-26 WT cells", "Tumor weight, Mouse no. 4 / g": 1.31}
